readout: melting point

O=C(O)c1ccc(NCCCc2ccccc2)cn1    167 to 169 °C

Quick note, melting point for `CC(C)(C)c1ccc(CCCO)cc1NC(=O)CC1c2ccccc2Oc2ccccc21` landed at 185 to 186 °C

response.value for COc1ccc(CNc2nc(N3CCn4ccnc4C3)ncc2C(=O)NCC2CN(C)CCO2)cc1Cl (stereo unspecified) (field: melting point) = 132 to 134 °C

In plain terms, `O=C(C=C1CCCCN1)c1ccccc1` has a documented melting point of 59 to 60 °C

The value of melting point measured for the compound `c1ccc2[nH]c(-c3cc[nH]n3)nc2c1` turned out to be 335 to 338 °C

// field: melting point; key: `CC(=O)NCCOc1nc(-c2ccc(F)cc2C)c2ccc(=O)n(-c3c(F)cccc3F)c2n1` ; value = 75 to 79 °C

In plain terms, `Cc1cc(C)c(N2CCCc3c2[nH]n(C)c3=O)c(Cl)c1` has a documented melting point of 95.9 to 99.9 °C

Quick note, melting point for `O=C(O)c1ccc(-c2nc3ccc([N+](=O)[O-])cc3s2)cc1` landed at 352 to 355 °C

Briefly, melting point measured for COC(=O)c1cccc(CC2COc3ccc(OCc4ccc5ccccc5n4)cc3C2O)c1 (stereo unspecified) : 153 to 154 °C

The recorded melting point for entry `CCSC1=C(c2ccc(O)cc2)C(=O)c2ccc(O)cc21` equals 100 to 102 °C

So for `COc1cc(C)ccc1-c1nc(C)c(-c2cccnc2)[nH]1` , the logged melting point turned out to be 125 to 128 °C

// melting point value for `N#Cc1nn(-c2c(Cl)cc(C(F)(F)F)cc2Cl)cc1C1CC(=O)C1` : 127 °C

Given item `COC(=O)/C=C(\c1ccccc1)c1ccc2c(c1)C(C)(C)OC(=O)N2` , the value recorded as its melting point is 181 to 182 °C

Lab note: measured melting point of `C#CCn1c(=O)nc(-c2ccc3c(c2)OCO3)c2cc3c(cc21)OCO3` was 235 to 240 °C

Quick note, melting point for `COC(=O)c1ccnc(-c2cccc3cc(Cc4cccc(C(F)(F)F)c4)sc23)c1` landed at 106 to 107 °C

Consider COC(=O)NC1=NC(c2cccc3ccccc23)CN1 (stereo unspecified) . Its measured melting point is 208 to 209 °C

The compound O=CN1CCC(c2ccccc2Cc2ccccc2)C1 (stereo unspecified) showed melting point equal to 70 to 71 °C

Lab note: `CC(C)c1ccc(-c2cn(-c3cccc(C(=O)O)c3)cn2)cc1` gave melting point of 248 to 250 °C

Field melting point (entry `CCCCNc1c(N)c(N)nc(C)c1C(=O)OCC` ) reads 82 to 83 °C

Value of measured melting point for the entry `O=C(N[C@@H](Cc1ccccc1)C(=O)N1CCS(=O)CC1)c1cc2cc(Cl)ccc2[nH]1` : 230 to 234 °C

// sample CS(=O)(=O)c1ccc2c([N+](=O)[O-])cc3c(c2c1)C(CCl)CN3 (stereo unspecified) , its melting point was 193 to 194 °C

The compound listed as COc1ccc(C2(O)C(=O)N(Cc3ccc(Cl)cc3)c3ccccc32)cn1 (stereo unspecified) shows melting point equal to 182 to 184 °C

* * *

Recorded melting point for the following molecules

A selection of reference data follows.
CCCN(CCC)S(=O)(=O)c1cccc(C(=O)Nc2ccc(Br)cc2C)c1    135 to 136 °C
CC(CN1CCCC1)N1c2ccccc2Sc2ccc(C(=O)NCC3CCCC3)cc21 (racemic)    124 °C
CS(=O)(=O)c1nccn1-c1nc(-c2ccc(Cl)cc2)c(CCC(=O)O)o1    166 to 167 °C

Entry COc1ccc(C(O)COc2ccc(C(=O)O)c(O)c2)cc1C(C)(C)C (stereo not drawn) — recorded melting point = 149 to 150 °C

* * *

Quick list: melting point per entry.

Answered examples (4):
CC(C)(C)OC(=O)Nc1cc(OCc2ccccc2)c2ncccc2c1    180 to 181 °C
CC(C)(C)OC(=O)COC1=CC(=O)c2ccccc2C1=O    120 to 122 °C
CCCCN(Cc1ccc(-c2ccccc2-c2nnn[nH]2)cc1)c1ncc(C(=O)O)s1    183 to 184 °C
CCON=C(C(C)=NOCc1ccccc1C(=NOC)C(=O)NC)c1ccc(OCc2cccc(C(F)(F)F)c2)cc1    130 to 132 °C

Now turn to the next molecule.
melting point in this record for `CS(=O)(=O)c1c(C(=O)O)ccc(F)c1F` : 194 °C

* * *

Listing: melting point of selected compounds

Please review the entries below; each comes with its answer.
CCNc1cc(O)c(C(=O)c2ccccc2C(=O)O)cc1C    200 to 202 °C
CC1CCC2CC(=O)N(Cc3ccccc3)C3OC4(C)CCC1C23OO4 (single isomer, unassigned; (-))    177 to 179 °C
O=S(=O)(CC1CC1)c1nc(-c2ccccn2)c(-c2ccccn2)[nH]1    210 to 212 °C

compound COc1cc2ncnc(Nc3cccc(Br)c3)c2cc1OCC1CO1 (stereo unspecified) , melting point observed: 230 to 245 °C

For record Cn1c(C(=O)N2CCCC2)cc2cc(OCCNCC(O)COc3ccccc3)ccc21 (stereo unspecified) the listed melting point is 130 °C

Reported melting point of `N#CC(Sc1ccccc1)=C1SCCN1c1ccccc1` : 143 to 145 °C

* * *

Quick reference: melting point of the listed items.

COc1cc(/C=C/c2cc(/C=C/c3ccc4cc[nH]c4c3)n[nH]2)ccc1OCc1ccccn1    236 to 243 °C
COc1ccc(Cl)cc1NC(=S)C1CCCCn2c1nc(-c1ccncn1)cc2=O (racemic)    220 to 223 °C
COc1ccc(-c2ccc(-n3nnnc3C(F)(F)F)cc2)cc1C=O    186 to 187 °C
CC(=O)N1CCCC2=C1CCc1cccc(Cl)c12    117 to 118 °C

Lookup result for COC(=O)c1ccc(OCC(C)NCC(O)c2ccc(O)c(CO)c2)cc1 (stereo not given) ; measured melting point: 60 to 68 °C

* * *

Property: melting point; scope: individual compounds

CC1(C)OC(C=Cc2ccc(C(F)(F)F)cc2)=CC1=O    94 to 95 °C
CCOC(=O)c1nn(-c2ccc(Cl)cc2)c2c1CCCC2    139 to 140 °C
Cc1c(C(=O)Nc2ccc(SCCCO)c(C#N)c2)cnn1-c1ccc(Cl)cc1    165 °C
COc1ccc([C@H]2CCCC[C@H]2NC(=O)c2ccc(C(=O)c3ccccc3)cc2)cc1OC    119 to 122 °C
Cc1cc(OC(=S)N(C)C)c(C(C)(C)C)cc1C=O    79.5 to 81 °C

melting point reported for this compound O=C(C=Cc1ccc(-c2ccc3ncnc(Nc4ccc(OCc5cccc(F)c5)c(Cl)c4)c3c2)o1)NOC1CCCCO1 (stereo not given) : 233 °C

For record `O=C(O)C[C@H]1CC[C@H](Cn2nc(-c3cccs3)c(Cc3cc4c(cc3Cl)OCO4)c2C(=O)O)CC1` the listed melting point is 240 °C

# melting point (compound: `CC(C)(C)c1nc2c(Cl)ccc(C(=O)O)c2o1` ) is 209 to 210 °C

melting point for COc1ccc2c(c1)C(OC(C)C)=C(C(=O)O)S2=O (stereo not given) is 184 to 187 °C

Item: `CCCc1nc(C=NNC(=O)OCC)c[nH]1` | melting point: 180 to 182 °C

* * *

Each item that follows carries a reported melting point.
Field: numeric (°C). Do not append units.

Lab note: c1ccc(CC2CCN2C(c2ccccc2)c2ccccc2)cc1 (stereo not given) gave melting point of 87.5

Form: compound = CC1(C)CC(S(=O)(=O)C(F)c2c(F)cccc2F)=NO1 (stereo not given) ; melting point = 88

So for `Nc1ccc(Nc2c(NCc3ccco3)cc(C(=O)O)cc2S(N)(=O)=O)cc1` , the logged melting point turned out to be 232

`Cc1cn(-c2cccc(C3=Nc4ccc(-c5ccccc5F)cc4NC(=O)C3)c2)c(C)n1` has a reported melting point of 92

* * *

readout: melting point

Examples from the recorded data:
CCCCCc1ccc2c(c1)Cc1cc(CCCCC)ccc1-2    98.9 to 99.6 °C
CC1(C)OCC(CN2C(=O)C3(COc4cc5c(cc43)OCCO5)c3ccccc32)O1 (centres undefined)    55 to 57 °C
N=C(NO)c1ccc2[nH]cc(CCN3C(=O)c4ccccc4C3=O)c2c1    168 to 170 °C
CON=C(C(=O)OC)c1cccs1    106 °C
Cc1cc(Nc2cccc(O)c2)c2c(cnn2C)n1    264 to 265 °C
O=C(NC1CCCCC1)c1c(O)c2cc(F)ccc2n(Cc2ccc(F)cc2)c1=O    118 °C

Entry under test: `CC(C)(C)OC(=O)CN(Cc1ccccn1)c1cc(C(F)(F)F)c(Br)c(C(F)(F)F)c1` . Its melting point was 77 to 78 °C

The reported melting point of the compound COC(=O)CN(C(=O)OC)C1CN(C(=O)Nc2ccc(C(F)(F)F)cc2)N=C1c1ccc(Cl)cc1 (centres undefined) was 198 to 200 °C

Recorded result, `O=C1N=C(N2CCOCC2)SC1=Cc1ccccc1-c1ccc(O)c(C23CC4CC(CC(C4)C2)C3)c1` , melting point: 321 to 324 °C
